Entries and their measured EC50 follow.
# Test system: PKC mediated IL-2 production
# Assay procedure: IL-2 ELISA, human primary T cell, anti CD3+CD28+
# Format: cell-based
# Test settings: Homo sapiens, T-cell, 24 h, human primary T cells stimulated with αCD3 and αCD28, 24 hours

Would you please look over these solved cases?
{"Smiles data": "Cn1nnn(-c2cc(Nc3ncc(F)c(N[C@@H]4C[C@@H]5CCCN5C(C)(C)C4)n3)c(F)cc2CCO)c1=O", "Result": "0.1 to 0.5 µM"}
{"Smiles data": "CSc1nnnn1-c1cc(Nc2ncc(F)c(N[C@@H]3C[C@@H]4CCCN4C(C)(C)C3)n2)ccc1C", "Result": "< 0.1 µM"}
{"Smiles data": "CC1(C)C[C@H](Nc2nc(Nc3cccc(-n4nnnc4S)c3)ncc2F)C[C@@H]2CCCN21", "Result": "1 to 10 µM"}

*Q* Using the record for `Cn1nnn(-c2cc(Nc3ncc(F)c(N[C@@H]4C[C@@H]5CCCN5C(C)(C)C4)n3)c(F)cc2O[C@@H]2CCOC2)c1=O` , report its EC50.
*A* 0.1 to 0.5 µM

====

Item-by-item account of pEC50
# Tested on: PKC mediated IL-2 production
# Assay procedure: IL-2 ELISA, human primary T cell, anti CD3+CD28+
# Assay type: cell-based
# Test settings: Homo sapiens, T-cell, 24 h, human primary T cells stimulated with αCD3 and αCD28, 24 hours
pEC50: −log10 of the molar value.

Example entries begin here.
{"Molecule": "CCN(CC)CCOc1cc(F)c(Nc2ncc(F)c(N[C@@H]3C[C@@H]4CCCN4C(C)(C)C3)n2)cc1-n1nnn(C)c1=O [Compound 194]", "pEC50": "6.30 to 7.00"}
{"Molecule": "Cn1nnn(-c2cc(Nc3ncc(F)c(N[C@@H]4C[C@@H]5CCCN5C(C)(C)C4)n3)c(F)cc2C#N)c1=O [Compound 98]", "pEC50": "6.30 to 7.00"}

Consider now this further molecule.
*Q* What does the record list as pEC50 for Cn1nnn(-c2cc(Nc3ncc(F)c(N[C@H]4C[C@@H]5CCC(=O)N5C(C)(C)C4)n3)c(F)cc2C2CC2)c1=O (racemic) [Compound 32] ?
*A* 5.00 to 6.00

====

# Tested on: PKC mediated IL-2 production
# Assay procedure: IL-2 ELISA, human primary T cell, anti CD3+CD28+
# Assay type: cell-based
# Test settings: Homo sapiens, T-cell, 24 h, human primary T cells stimulated with αCD3 and αCD28, 24 hours
Value kind: EC50

Answered examples (5):
{"Smiles data": "[2H]C([2H])(O)C([2H])([2H])Oc1ccc(Nc2ncc(F)c(N[C@@H]3C[C@@H]4CCCN4C(C)(C)C3)n2)cc1C#N", "EC50": "< 0.1 µM"}
{"Smiles data": "[2H]C([2H])(O)C([2H])([2H])Oc1ccc(Nc2ncc(F)c(N[C@@H]3C[C@@H]4CCCN4C(C)(C)C3)n2)cc1OC", "EC50": "> 10 µM"}
{"Smiles data": "CC1(C)C[C@H](Nc2nc(Nc3ccc4c(c3)-n3nnnc3C3(COC3)O4)ncc2F)C[C@@H]2CCCN21", "EC50": "< 0.1 µM"}
{"Smiles data": "COc1ccc(Nc2ncc(F)c(N[C@@H]3C[C@@H]4CCCN4C(C)(C)C3)n2)cc1-n1nnn(CCO)c1=O", "EC50": "0.5 to 1 µM"}
{"Smiles data": "Cn1nnn(-c2cc(Nc3ncc(F)c(N[C@@H]4C[C@@H]5CCCN5C(C)(C)C4)n3)c(F)cc2O)c1=O", "EC50": "1 to 10 µM"}

*Q* State its EC50 on PKC mediated IL-2 production: `Cn1nc2n(c1=O)-c1cc(Nc3ncc(F)c(N[C@@H]4C[C@@H]5CCCN5C(C)(C)C4)n3)ccc1OC2(CO)CO`
*A* 1 to 10 µM

====

# Test system: PKC mediated IL-2 production
# Assay procedure: IL-2 ELISA, human primary T cell, anti CD3+CD28+
# Type: cell-based
# Test settings: Homo sapiens, T-cell, 24 h, human primary T cells stimulated with αCD3 and αCD28, 24 hours
pEC50: −log10 of the molar value.
Value kind: pEC50

Examples with answers:
{"Compound": "CO[C@@H](C)COc1cc(F)c(Nc2ncc(F)c(N(C[C@H](C)OC)[C@@H]3C[C@@H]4CCCN4C(C)(C)C3)n2)cc1-n1nnn(C)c1=O", "pEC50": "< 5.00"}
{"Compound": "Cn1nnn(-c2cc(Nc3ncc(C#N)c(N[C@@H]4C[C@@H]5CCCN5C(C)(C)C4)n3)c(F)cc2OC(C)(C)CO)c1=O", "pEC50": "6.30 to 7.00"}
{"Compound": "Cn1nnn(-c2cc(Nc3ncc(F)c(N[C@H]4C[C@H]5CCCN5C(C)(C)C4)n3)c(F)cc2C2CC2)c1=O", "pEC50": "6.00 to 6.30"}
{"Compound": "COCC1(COC)Oc2ccc(Nc3ncc(F)c(N[C@@H]4C[C@@H]5CCCN5C(C)(C)C4)n3)cc2-n2nnnc21", "pEC50": "> 7.00"}
{"Compound": "COc1ccc(Nc2ncc(F)c(N[C@H]3CCN4[C@@H](CCC4(C)C)C3)n2)cc1OC(F)F", "pEC50": "6.30 to 7.00"}

*Q* What pEC50 appears in the records for this compound with PKC mediated IL-2 production? Cn1nnn(-c2cc(Nc3ncc(F)c(N[C@@H]4C[C@@H]5CCCN5C(C)(C)C4)n3)c(F)cc2OC2CCOC2=O)c1=O (stereo partly drawn)
*A* < 5.00

====

# Test system: PKC mediated IL-2 production
# Assay procedure: IL-2 ELISA, human primary T cell, anti CD3+CD28+
# Type: cell-based
# Test settings: Homo sapiens, T-cell, 24 h, human primary T cells stimulated with αCD3 and αCD28, 24 hours
pEC50: −log10 of the molar value.
Value kind: pEC50

# annotated cases, reported pEC50 shown
{"Molecule": "Cn1nnn(-c2cc(Nc3ncc(F)c(NC4CCN5C(CCC5(C)C)C4)n3)c(F)cc2C2CC2)c1=O (single isomer, unassigned) [Compound 34]", "pEC50": "5.00 to 6.00"}
{"Molecule": "Cn1nnn(-c2cc(Nc3ncc(Cl)c(N[C@@H]4C[C@@H]5CCCN5C(C)(C)C4)n3)c(F)cc2OCCO)c1=O [Compound 237]", "pEC50": "> 7.00"}
{"Molecule": "CC1(C)C[C@H](Nc2nc(Nc3ccc(OCC4(CO)COC4)c(C#N)c3)ncc2F)C[C@@H]2CCCN21 [Compound 174]", "pEC50": "6.00 to 6.30"}
{"Molecule": "Cn1nnn(-c2cc(Nc3ncc(C#N)c(N[C@@H]4C[C@@H]5CCCN5C(C)(C)C4)n3)c(F)cc2O[C@H]2CCOC2)c1=O [Compound 112]", "pEC50": "6.30 to 7.00"}

*Q* State the recorded pEC50 for this entry: Cn1nnn(-c2cc(Nc3ncc(F)c(N(CC(C)(C)O)[C@@H]4C[C@@H]5CCCN5C(C)(C)C4)n3)c(F)cc2OCC(C)(C)O)c1=O [Compound 139]
*A* < 5.00

*Q* Consider the molecule shown here: CC(O)COc1cc(F)c(Nc2ncc(Cl)c(N[C@@H]3C[C@@H]4CCCN4C(C)(C)C3)n2)cc1-n1nnn(C)c1=O (some centres unmarked) [Compound 236] What is its recorded pEC50?
*A* > 7.00

*Q* Which value of pEC50 has been reported for COc1cc(Nc2ncc(Cl)c(N[C@@H]3C[C@@H]4CCCN4C(C)(C)C3)n2)cc(-n2nnnc2C)c1 [Compound 152] in the records?
*A* > 7.00

*Q* Which pEC50 is listed for [2H]C1(Oc2ccc(Nc3ncc(F)c(N[C@H]4CCN5[C@@H](CCC5(C)C)C4)n3)cc2-n2nnn(C)c2=O)CC(O)C1 (some centres unmarked) [Compound 309] ?
*A* 6.30 to 7.00

====

EC50 for assorted compounds
# Test system: PKC mediated IL-2 production
# Assay procedure: IL-2 ELISA, human primary T cell, anti CD3+CD28+
# Assay type: cell-based
# Test settings: Homo sapiens, T-cell, 24 h, human primary T cells stimulated with αCD3 and αCD28, 24 hours
# Procedure: Compounds 1-328 were tested in a whole cell functional assay for PKC mediated IL-2 production as follows. Human primary T cell isolation and culture: Human primary T cells were prepared as follows. Whole blood was obtained from a healthy volunteer, mixed 1:1 with PBS, layered on to Ficoll Hypaque (Amersham Pharmacia Biotech, Piscataway, N.J., Catalog #17-1440-03) in 2:1 blood/PBS:ficoll ratio and centrifuged for 30 minutes at 4° C. at 1750 rpm. […]

{"Compound": "CC1(C)C[C@H](Nc2nc(Nc3cc(-n4cnnn4)c(C4CC4)cc3F)ncc2F)C[C@@H]2CC(F)(F)CN21", "Result": "500 to 1000 nM"}

Proceeding to the next compound to report its EC50.
*Q* Fill blank: measured EC50 of the compound CC1(C)CC[C@H]2C[C@@H](Nc3nc(Nc4ccc(OC5CC(O)C5)c(OC(F)F)c4)ncc3F)CCN21 (stereo partly shown) is ____.
*A* 100 to 500 nM
